# System: HepG2 cells
# protocol.details: Cytotoxicity by high content screening (HCS)
# Type: cell-based
# condition.set: NR = No response observed, read-out: Cytotoxicity by HCS (AC50), DNA structure
metric.name: AC50

Any idea what its AC50 is? The compound is `COc1cc(-c2[o+]c3cc(O)cc(O)c3cc2O[C@@H]2O[C@H](CO)[C@@H](O)[C@H](O)[C@H]2O)cc(OC)c1O`
> 200 µM

====

# target.desc: CYP1A2 (Homo sapiens, UniProt P05177)
# Sequence (P05177 whole entry): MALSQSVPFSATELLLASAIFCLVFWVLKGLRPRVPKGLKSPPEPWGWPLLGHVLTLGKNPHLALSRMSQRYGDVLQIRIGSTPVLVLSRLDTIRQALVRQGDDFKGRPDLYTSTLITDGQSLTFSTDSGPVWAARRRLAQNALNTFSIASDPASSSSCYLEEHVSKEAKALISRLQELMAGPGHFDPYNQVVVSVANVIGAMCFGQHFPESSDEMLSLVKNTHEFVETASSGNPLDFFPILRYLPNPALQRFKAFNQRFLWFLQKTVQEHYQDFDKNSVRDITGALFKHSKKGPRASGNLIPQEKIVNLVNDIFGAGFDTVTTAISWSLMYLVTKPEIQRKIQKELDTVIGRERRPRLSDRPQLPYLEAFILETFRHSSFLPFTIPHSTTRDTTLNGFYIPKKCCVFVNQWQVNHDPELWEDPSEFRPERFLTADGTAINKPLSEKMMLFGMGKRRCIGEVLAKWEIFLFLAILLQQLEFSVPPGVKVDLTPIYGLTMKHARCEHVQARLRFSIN
pIC50: −log10 of the molar value.
// reported pIC50 per item

- molecule: "O=C(O)CCc1ccc(O)c(O)c1 [DHCA, 3(3,4-dihydroxy-phenyl) propionic acid]"
  pIC50: "< 4.60"

Consider the additional molecule presented here.
Provide the documented pIC50 with CYP1A2 (Homo sapiens, UniProt P05177) as the system for `COc1cc(-c2[o+]c3cc(O)cc(O)c3cc2O[C@@H]2O[C@H](CO)[C@@H](O)[C@H](O)[C@H]2O)cc(OC)c1O`
< 4.60

====

# target.desc: 5-HT3 (serotonin receptor) (Homo sapiens, UniProt P46098)
# Sequence (P46098 24-478): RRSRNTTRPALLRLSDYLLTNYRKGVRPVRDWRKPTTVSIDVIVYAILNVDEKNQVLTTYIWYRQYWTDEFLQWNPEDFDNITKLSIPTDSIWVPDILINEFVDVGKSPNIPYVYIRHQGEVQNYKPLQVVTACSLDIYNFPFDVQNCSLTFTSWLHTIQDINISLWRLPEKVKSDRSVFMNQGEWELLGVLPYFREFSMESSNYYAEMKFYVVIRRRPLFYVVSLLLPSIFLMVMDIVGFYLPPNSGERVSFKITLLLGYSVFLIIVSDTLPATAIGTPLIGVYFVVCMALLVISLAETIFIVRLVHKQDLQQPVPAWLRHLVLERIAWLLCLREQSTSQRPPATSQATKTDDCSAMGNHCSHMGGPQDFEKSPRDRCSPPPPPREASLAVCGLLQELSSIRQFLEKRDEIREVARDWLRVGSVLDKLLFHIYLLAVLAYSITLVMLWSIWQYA
metric.name: pKi
On this scale, pKi is minus log10 of a concentration expressed in M (mol/L).

Provide the documented pKi with 5-HT3 (serotonin receptor) (Homo sapiens, UniProt P46098) as the system for `COc1cc(-c2[o+]c3cc(O)cc(O)c3cc2O[C@@H]2O[C@H](CO)[C@@H](O)[C@H](O)[C@H]2O)cc(OC)c1O`
5.37

====

# protocol.details: Cytotoxicity by high content screening (HCS)
# Assay type: cell-based
# condition.set: human, HepG2 cells, DHCA ↑, NR = No response observed, read-out: Cytotoxicity by HCS (AC50), Cytochrome C release
metric.name: AC50

Any idea what its AC50 is? The compound is O=C(O)CCc1ccc(O)c(O)c1 [DHCA, 3(3,4-dihydroxy-phenyl) propionic acid]
> 200 µM

====

# Tested on: HepG2 cells
# protocol.details: Cytotoxicity by high content screening (HCS)
# Format: cell-based
# condition.set: Malvidin-gluc ↑, NR = No response observed, read-out: Cytotoxicity by HCS (AC50), Nuclear size
metric.name: AC50 (µM)
Please reply with the bare figure in µM and do not write the unit itself.

Any idea what its AC50 is? The molecule is `COc1cc(-c2[o+]c3cc(O)cc(O)c3cc2O[C@@H]2O[C@H](CO)[C@@H](O)[C@H](O)[C@H]2O)cc(OC)c1O`
88.4

====

# target.desc: CYP2C9 (Homo sapiens)
# Construct: from tissue; host or cells: human liver microsomes
# Sequence (P11712 whole entry): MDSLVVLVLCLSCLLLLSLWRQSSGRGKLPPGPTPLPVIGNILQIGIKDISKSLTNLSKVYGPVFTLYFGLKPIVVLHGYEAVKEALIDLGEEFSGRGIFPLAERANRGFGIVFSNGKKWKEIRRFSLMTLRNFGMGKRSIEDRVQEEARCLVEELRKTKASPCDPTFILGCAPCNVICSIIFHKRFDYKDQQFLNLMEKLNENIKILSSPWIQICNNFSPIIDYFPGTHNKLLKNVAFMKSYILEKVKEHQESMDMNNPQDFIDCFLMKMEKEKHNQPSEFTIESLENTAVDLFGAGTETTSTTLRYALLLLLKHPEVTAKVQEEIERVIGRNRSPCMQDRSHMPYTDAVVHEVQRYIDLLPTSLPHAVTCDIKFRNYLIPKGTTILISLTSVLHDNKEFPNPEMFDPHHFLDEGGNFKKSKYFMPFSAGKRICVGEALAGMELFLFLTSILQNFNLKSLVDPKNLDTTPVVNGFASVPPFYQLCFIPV
# protocol.details: CYP inhibition in human liver microsomes
# Type: in vitro ADME
# condition.set: read-out: CPY450 inhibition (IC50), CYP2C9
pIC50: −log10 of the molar value.
metric.name: pIC50

- compound: "COc1cc(-c2[o+]c3cc(O)cc(O)c3cc2O[C@@H]2O[C@H](CO)[C@@H](O)[C@H](O)[C@H]2O)cc(OC)c1O"
  metric.name: "pIC50"
  observed.result: "< 4.60"

Consider the additional compound presented here.
Any idea what its pIC50 is? The compound is O=C(O)CCc1ccc(O)c(O)c1 [DHCA, 3(3,4-dihydroxy-phenyl) propionic acid]
< 4.60

====

# target.desc: human Ether-à-go-go-related gene (hERG) (Homo sapiens)
# Construct: expressed in transfected cells; host or cells: CHO cells, stably transfected
# Sequence (Q12809 whole entry): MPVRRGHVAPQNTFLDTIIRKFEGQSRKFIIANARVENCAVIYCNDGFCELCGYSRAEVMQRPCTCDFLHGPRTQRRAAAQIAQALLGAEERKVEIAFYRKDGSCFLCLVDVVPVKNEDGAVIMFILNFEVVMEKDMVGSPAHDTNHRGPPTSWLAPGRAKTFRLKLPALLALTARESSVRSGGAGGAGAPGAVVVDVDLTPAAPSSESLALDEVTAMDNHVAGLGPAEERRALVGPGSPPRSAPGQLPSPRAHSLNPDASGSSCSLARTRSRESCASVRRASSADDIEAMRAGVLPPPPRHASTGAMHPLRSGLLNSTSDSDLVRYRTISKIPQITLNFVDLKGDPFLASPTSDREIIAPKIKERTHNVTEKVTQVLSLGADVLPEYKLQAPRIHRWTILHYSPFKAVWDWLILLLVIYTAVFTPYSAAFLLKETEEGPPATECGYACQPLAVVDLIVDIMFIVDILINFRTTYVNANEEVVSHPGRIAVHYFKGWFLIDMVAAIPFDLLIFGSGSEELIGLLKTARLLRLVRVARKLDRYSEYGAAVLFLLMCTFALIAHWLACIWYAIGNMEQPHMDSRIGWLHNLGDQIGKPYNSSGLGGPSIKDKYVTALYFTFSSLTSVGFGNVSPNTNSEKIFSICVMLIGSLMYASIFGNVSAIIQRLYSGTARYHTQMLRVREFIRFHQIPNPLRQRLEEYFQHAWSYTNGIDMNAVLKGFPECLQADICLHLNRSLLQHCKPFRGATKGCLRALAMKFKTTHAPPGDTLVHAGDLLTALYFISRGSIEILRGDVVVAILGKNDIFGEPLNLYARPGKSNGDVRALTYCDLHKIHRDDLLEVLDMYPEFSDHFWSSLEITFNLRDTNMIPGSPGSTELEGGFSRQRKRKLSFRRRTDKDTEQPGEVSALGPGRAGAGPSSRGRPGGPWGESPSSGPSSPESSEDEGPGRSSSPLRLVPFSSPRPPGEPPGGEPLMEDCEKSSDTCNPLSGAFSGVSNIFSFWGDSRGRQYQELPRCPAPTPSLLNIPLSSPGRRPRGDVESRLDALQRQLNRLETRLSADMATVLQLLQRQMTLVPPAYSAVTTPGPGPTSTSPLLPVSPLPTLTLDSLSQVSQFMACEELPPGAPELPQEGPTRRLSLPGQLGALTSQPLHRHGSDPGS
# protocol.details: In vitro cardiotoxicity, hERG inhibition (IonWorks HT, CHO cells)
# Type: cell-based
# condition.set: CHO cells stably transfected with hERG
metric.name: IC50

- compound: "COc1cc(-c2[o+]c3cc(O)cc(O)c3cc2O[C@@H]2O[C@H](CO)[C@@H](O)[C@H](O)[C@H]2O)cc(OC)c1O [Mal-gluc]"
  metric.name: "IC50"
  observed.result: "> 25 µM"

Consider the additional compound presented here.
Any idea what its IC50 is? The compound is O=C(O)CCc1ccc(O)c(O)c1 [DHCA, 3(3,4-dihydroxy-phenyl) propionic acid]
> 25 µM

====

# protocol.details: Cytotoxicity by high content screening (HCS)
# Format: cell-based
# condition.set: human, HepG2 cells, Malvidin-gluc ↑, NR = No response observed, read-out: Cytotoxicity by HCS (AC50), Mitochondrial mass
metric.name: AC50

Any idea what its AC50 is? The molecule is O=C(O)CCc1ccc(O)c(O)c1 [DHCA, 3(3,4-dihydroxy-phenyl) propionic acid]
> 200 µM

====

# Tested on: HepG2 cells
# protocol.details: Cytotoxicity by high content screening (HCS)
# Format: cell-based
# condition.set: DHCA ↑ (NS, fit not statistically significant), NR = No response observed, read-out: Cytotoxicity by HCS (AC50), Mitochondrial membrane potential
metric.name: AC50

Provide the documented AC50 with HepG2 cells as the system for `COc1cc(-c2[o+]c3cc(O)cc(O)c3cc2O[C@@H]2O[C@H](CO)[C@@H](O)[C@H](O)[C@H]2O)cc(OC)c1O`
> 200 µM

====

# target.desc: CYP3A4 (Homo sapiens)
# Sequence (P08684 2-503): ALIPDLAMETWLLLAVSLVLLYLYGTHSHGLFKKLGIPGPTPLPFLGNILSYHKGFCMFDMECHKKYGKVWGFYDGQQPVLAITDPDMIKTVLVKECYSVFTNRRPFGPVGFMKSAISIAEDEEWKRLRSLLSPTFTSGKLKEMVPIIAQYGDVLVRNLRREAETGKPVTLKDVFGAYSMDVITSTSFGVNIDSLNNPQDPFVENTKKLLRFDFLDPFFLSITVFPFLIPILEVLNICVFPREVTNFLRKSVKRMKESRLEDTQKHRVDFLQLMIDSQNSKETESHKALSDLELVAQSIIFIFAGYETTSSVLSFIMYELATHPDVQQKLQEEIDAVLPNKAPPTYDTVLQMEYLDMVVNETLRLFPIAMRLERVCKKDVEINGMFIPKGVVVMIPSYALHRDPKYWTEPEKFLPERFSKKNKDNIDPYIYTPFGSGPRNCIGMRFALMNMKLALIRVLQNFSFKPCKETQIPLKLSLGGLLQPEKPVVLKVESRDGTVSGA
# protocol.details: CYP inhibition in human liver microsomes
# Type: in vitro ADME
# condition.set: read-out: CPY450 inhibition (IC50), CYP3A4
pIC50: −log10 of the molar value.
metric.name: pIC50

Any idea what its pIC50 is? The molecule is `COc1cc(-c2[o+]c3cc(O)cc(O)c3cc2O[C@@H]2O[C@H](CO)[C@@H](O)[C@H](O)[C@H]2O)cc(OC)c1O`
< 4.60

====

# protocol.details: Cytotoxicity by high content screening (HCS)
# Format: cell-based
# condition.set: human, HepG2 cells, Malvidin-gluc ↑, NR = No response observed, read-out: Cytotoxicity by HCS (AC50), Nuclear size
metric.name: AC50

Any idea what its AC50 is? The molecule is O=C(O)CCc1ccc(O)c(O)c1 [DHCA, 3(3,4-dihydroxy-phenyl) propionic acid]
> 200 µM

====

# protocol.details: Cytotoxicity by high content screening (HCS)
# Format: cell-based
# condition.set: human, HepG2 cells, both ↓, read-out: Cytotoxicity by HCS (AC50), Cell membrane permeability
metric.name: AC50 (µM)
Please reply with the bare figure in µM and do not write the unit itself.

Any idea what its AC50 is? The compound is O=C(O)CCc1ccc(O)c(O)c1 [DHCA, 3(3,4-dihydroxy-phenyl) propionic acid]
56.6

====

# protocol.details: Cytotoxicity by high content screening (HCS)
# Assay type: cell-based
# condition.set: human, HepG2 cells, NR = No response observed, read-out: Cytotoxicity by HCS (AC50), DNA structure
metric.name: AC50

Any idea what its AC50 is? The molecule is O=C(O)CCc1ccc(O)c(O)c1 [DHCA, 3(3,4-dihydroxy-phenyl) propionic acid]
> 200 µM

====

# Tested on: HepG2 cells
# protocol.details: Cytotoxicity by high content screening (HCS)
# Assay type: cell-based
# condition.set: Malvidin-gluc ↑, NR = No response observed, read-out: Cytotoxicity by HCS (AC50), Mitochondrial mass
metric.name: AC50
Just the number plus its unit, please.

Any idea what its AC50 is? The compound is `COc1cc(-c2[o+]c3cc(O)cc(O)c3cc2O[C@@H]2O[C@H](CO)[C@@H](O)[C@H](O)[C@H]2O)cc(OC)c1O`
176 µM

====

# System: IL-6
# protocol.details: LPS-induced IL-6 production in PBMCs (screening, dose response)
# Assay type: cell-based, mouse
# condition.set: Mus musculus, PBMC; PBMCs pretreated 16 h, then LPS 16 h; read-out: calculated IC50, reducing LPS-induced IL-6 production
metric.name: IC50 (µM)
Please reply with the bare figure in µM and do not write the unit itself.

Any idea what its IC50 is? The compound is O=C(O)CCc1ccc(O)c(O)c1 [DHCA, 3(3,4-dihydroxy-phenyl) propionic acid]
17.7

====

# target.desc: 5-HT1D (serotonin receptor) (Homo sapiens, UniProt P28221)
# Sequence (P28221 whole entry, species assumed): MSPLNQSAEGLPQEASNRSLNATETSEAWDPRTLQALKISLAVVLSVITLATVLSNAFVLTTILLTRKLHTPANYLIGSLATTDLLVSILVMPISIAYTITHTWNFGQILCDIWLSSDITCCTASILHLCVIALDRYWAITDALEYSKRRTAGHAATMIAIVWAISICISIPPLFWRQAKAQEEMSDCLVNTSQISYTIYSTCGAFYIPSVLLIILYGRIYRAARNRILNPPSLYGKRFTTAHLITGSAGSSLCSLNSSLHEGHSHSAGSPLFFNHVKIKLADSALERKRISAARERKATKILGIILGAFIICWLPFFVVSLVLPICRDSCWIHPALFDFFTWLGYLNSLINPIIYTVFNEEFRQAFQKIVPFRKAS
metric.name: Ki

Any idea what its Ki is? The compound is COc1cc(-c2[o+]c3cc(O)cc(O)c3cc2O[C@@H]2O[C@H](CO)[C@@H](O)[C@H](O)[C@H]2O)cc(OC)c1O [Mal-gluc]
> 10 µM
